System: Bacillus subtilis (Bacillus subtilis)
readoutType: MIC (µg/mL)
Note: unit µg/mL is implicit; provide only the numeric part.

Identify measured MIC associated with `CC[C@@H](C)[C@@H](NC(=O)[C@@H](CCCNC(=N)N)NC(=O)[C@H](CO)NC(=O)[C@@H](NC(=O)[C@@H](Cc1ccccc1)NC)[C@@H](C)CC)C(=O)N[C@H](C(=O)N[C@@H](CO)C(=O)N[C@H]1C(=O)N[C@@H](C)C(=O)N[C@@H](CC(C)C)C(=O)N[C@@H]([C@@H](C)CC)C(=O)O[C@H]1C)[C@@H](C)CC`
0.125

###

Measured MIC accompanies every entry in the list below.
Test system: Staphylococcus saprophyticus
testName: Antibacterial activity against Staphylococcus saprophyticus ATCC 15305 after 24 hrs
Format: functional
studyConditions: ATCC 15305, 24 h
Positions of bridges follow the written chain, without caps; N, C: chain ends. Non-standard residues stand in square brackets, D forms with d. Residues, ends and D or L forms follow the SMILES beside them. dNMeF = CN[C@H](Cc1ccccc1)C(=O)O

CC[C@@H](C)[C@@H](NC(=O)[C@@H](CCC(N)=O)NC(=O)[C@H](CO)NC(=O)[C@@H](NC(=O)[C@@H](Cc1ccccc1)NC)[C@@H](C)CC)C(=O)N[C@H](C(=O)N[C@@H](CO)C(=O)N[C@H]1C(=O)N[C@@H](CCCNC(=N)N)C(=O)N[C@@H](CC(C)C)C(=O)N[C@@H]([C@@H](C)CC)C(=O)O[C@H]1C)[C@@H](C)CC (H-[dNMeF]IS[dQ][dI]IS[dT]RLI; ester 8-C)
< 0.0625 µg/mL

Please report the measured MIC for `CC[C@@H](C)[C@@H](NC(=O)[C@@H](CCC(N)=O)NC(=O)[C@H](CCCNC(=N)N)NC(=O)[C@@H](NC(=O)[C@@H](Cc1ccccc1)NC)[C@@H](C)CC)C(=O)N[C@H](C(=O)N[C@@H](CO)C(=O)N[C@H]1C(=O)N[C@@H](C)C(=O)N[C@@H]([C@@H](C)CC)C(=O)N[C@@H]([C@@H](C)CC)C(=O)O[C@H]1C)[C@@H](C)CC`
< 0.0625 µg/mL
